PROTOCOL DESCRIPTION: Acute toxicity
STUDY CONDITIONS: mouse, in vivo; oral, 4 week old male mice
Method: The acute toxicity of one typical compound of this invention was measured by administering the compound to a group of 4 week old male mice.

{"COMPOUND": "CCCC/C=C1\\CCC(CN(C)C)C1=O.Cl (stereo not shown) [Compound 1]", "UNIT LABEL": "mg/kg", "LD50": 486}

* * *

System: 60 human tumor cell lines
PROTOCOL DESCRIPTION: National Cancer Institute in vitro tumor cell screen
Type: cell-based
Design: key: LEU: Leukemia/lymphoma; LNS: Nonsmall cell lung; COL: Colon; MEL: Melanoma; OVA: Ovary; REN: Kidney; SCL: Small cell lung
STUDY CONDITIONS: subpanels for TGI
Where a name gives a salt, the structure may show the parent alone.
PROPERTY: Differential Cellular Sensitivity TGI, tumor cell line subpanels

{"COMPOUND": "COc1ccccc1/C=C1\\CCC(CN(C)C)C1=O.Cl (stereo not drawn) [Compound 7]", "RESULT": "COL"}
{"COMPOUND": "CCOC(=O)COc1ccccc1/C=C1\\CCC(CN(C)C)C1=O.Cl (stereo not drawn) [Compound 4]", "RESULT": "LEU"}
{"COMPOUND": "COc1ccc(/C=C2\\CCC(Cc3ccccc3)(CN(C)C)C2=O)cc1.Cl (stereo not drawn) [Compound 12]", "RESULT": "LEU;SCL"}
{"COMPOUND": "CCCCCCC/C=C1\\CCC(CN(C)C)C1=O.Cl (stereo not drawn) [Compound 2]", "RESULT": "COL;REN"}
{"COMPOUND": "COc1ccccc1/C=C1\\CCC(Cc2ccccc2)(CN(C)C)C1=O.Cl (stereo not drawn) [Compound 11]", "RESULT": "LEU"}
{"COMPOUND": "CC(/C=C1\\CCC(CN(C)C)C1=O)c1cccc(Br)c1.Cl (stereo not drawn) [Compound 5]", "RESULT": "LEU"}
{"COMPOUND": "COc1ccccc1/C=C1\\CCC(CN2CCOCC2)C1=O.Cl (stereo not drawn) [Compound 10]", "RESULT": "LEU"}
{"COMPOUND": "O=C1/C(=C/c2ccc(O)cc2)CCC1CNc1ccc(Cl)cc1 (stereo not drawn) [Compound 9]", "RESULT": "LEU;SCL"}
{"COMPOUND": "CN(C)CC1CC/C(=C\\c2ccc(O)cc2)C1=O.Cl (stereo not drawn) [Compound 8]", "RESULT": "LEU"}
{"COMPOUND": "CCCC/C=C1\\CCC(CN(C)C)C1=O.Cl (stereo not drawn) [Compound 1]", "RESULT": "COL;REN"}
{"COMPOUND": "CN(C)CCC1(C2=CCCC2)CC/C(=C\\c2ccc(Cl)cc2)C1=O (stereo not drawn) [Compound 13, hydrochloride]", "RESULT": "MEL"}

* * *

PROTOCOL DESCRIPTION: Acute toxicity
STUDY CONDITIONS: mouse, in vivo, iv; intraveneous, 4 week old male mice

{"COMPOUND": "CCCC/C=C1\\CCC(CN(C)C)C1=O.Cl (stereo not shown) [Compound 1]", "LD50, mg/kg": 52}

* * *

PROTOCOL DESCRIPTION: Acute toxicity
STUDY CONDITIONS: mouse, in vivo, ip; intraperitoneal, 4 week old male mice

{"COMPOUND": "CCCC/C=C1\\CCC(CN(C)C)C1=O.Cl (stereo not shown) [Compound 1]", "UNIT LABEL": "mg/kg", "LD50": 107}
